target: hNMUR2 (Homo sapiens)
Sequence (Q9GZQ4 whole entry): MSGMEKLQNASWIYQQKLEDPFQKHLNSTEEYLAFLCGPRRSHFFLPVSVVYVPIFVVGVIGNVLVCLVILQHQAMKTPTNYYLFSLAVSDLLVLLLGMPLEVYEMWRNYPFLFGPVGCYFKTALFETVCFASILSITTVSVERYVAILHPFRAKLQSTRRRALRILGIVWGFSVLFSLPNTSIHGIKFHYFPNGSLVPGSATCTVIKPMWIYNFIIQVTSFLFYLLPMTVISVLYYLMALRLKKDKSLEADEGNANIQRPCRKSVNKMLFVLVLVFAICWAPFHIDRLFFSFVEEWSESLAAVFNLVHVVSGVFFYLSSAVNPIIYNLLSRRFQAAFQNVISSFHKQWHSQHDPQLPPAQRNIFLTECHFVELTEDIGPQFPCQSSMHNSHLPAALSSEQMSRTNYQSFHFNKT
measurement protocol: FLIPR calcium mobilization assay, human NMUR2
Format: cell-based
Design: expressed in transfected cells; host or cells: FLP-In CHO or HEK-293 FLP-In cells (pcDNA5); HEK-293/aeq17 lines (pcDNA3.1) were also made
test context: maximum response at 1 μM compared to hNMU-25; human NMUR2
Starred links: 1 amine or outer side, 2 acyl side, 3 side chain; linkers in the order of their positions; H or OH if unused. Residues, ends and D or L forms follow the SMILES beside them. *: point of attachment. X2 = CCN1C(=O)CC(SC[C@H](NC(C)=O)C(=O)NCCCOCCOCCOCCCN*)C1=O; Succinimide(1-Et,3-yl) = CCN1C(=O)CC(*)C1=O; Suc = O=C(CCC(=O)[*:2])[*:1]
Here, each record is paired with measured % Activity data.
Your answer is read as %, so omit the unit and give the number.

Answered cases to consult:
CCN1C(=O)CC(SC[C@H](NC(C)=O)C(=O)NCCCOCCOCCOCCCNC(=O)CCC(=O)N[C@@H](Cc2ccccc2)C(=O)N[C@@H](CC(C)C)C(=O)N[C@@H](Cc2ccccc2)C(=O)N[C@@H](CCCNC(=N)N)C(=O)N2CCC[C@H]2C(=O)N[C@@H](CCCNC(=N)N)C(=O)N[C@@H](CC(N)=O)C(N)=O)C1=O (stereo partly drawn) [NMU15, Ac-C1-Ttds-FLFRPRN-CONH2] ({X2-Suc}-FLFRPRN-NH2); 101
CCN1C(=O)CC(SC[C@H](NC(C)=O)C(=O)N[C@@H](C)C(=O)N[C@@H](CO)C(=O)N[C@@H](CCC(N)=O)C(=O)N[C@@H](CO)C(=O)N[C@@H](CCCNC(=N)N)C(=O)NCC(=O)N[C@@H](Cc2ccc(O)cc2)C(=O)N[C@@H](Cc2ccccc2)C(=O)N[C@@H](CC(C)C)C(=O)N[C@@H](Cc2ccccc2)C(=O)N[C@@H](CCCNC(=N)N)C(=O)N2CCC[C@H]2C(=O)N[C@@H](CCCNC(=N)N)C(=O)N[C@@H](CC(N)=O)C(N)=O)C1=O (stereo partly drawn) [NMU17] (Ac-C(Succinimide(1-Et,3-yl))ASQSRGYFLFRPRN-NH2); 99.8

Consider the additional compound presented here.
Data request: What % Activity appears in the records for this compound with hNMUR2 (Homo sapiens)? CCN1C(=O)CC(SC[C@H](NC(C)=O)C(=O)NCC(=O)N[C@@H](Cc2ccc(O)cc2)C(=O)N[C@@H](Cc2ccccc2)C(=O)N[C@@H](CC(C)C)C(=O)N[C@@H](Cc2ccccc2)C(=O)N[C@@H](CCCNC(=N)N)C(=O)N2CCC[C@H]2C(=O)N[C@@H](CCCNC(=N)N)C(=O)N[C@@H](CC(N)=O)C(N)=O)C1=O (stereo partly drawn) [NMU6] (Ac-C(Succinimide(1-Et,3-yl))GYFLFRPRN-NH2)
Data returned: 100

Recorded values, source patent US20100075907A1.
